experiment: in vivo; conditions: ICR, mouse, plasma, iv, 3 mg/kg
measurement.kind: AUC(0-t) (ng·h/mL)
Reply numerically in ng·h/mL, unit not repeated.

A selection of reference data follows.
Prompt: Name the recorded AUC(0-t) for CNc1nc(C)c2cc(-c3cnc(OC)c(NS(=O)(=O)c4ccc(F)cc4F)c3)cc(OC3CCOCC3)c2n1 .
Completion: 3480

Prompt: Could you do the same for COc1ncc(-c2cc(O[C@@H]3CCOC3)c3nc(N)nc(C)c3c2)cc1NS(=O)(=O)c1ccc(F)cc1F , please?
Completion: 904

Continue with the next compound.
Prompt: Name the recorded AUC(0-t) for CNc1nc(C)c2cc(-c3cnc(OC)c(NS(=O)(=O)c4ccc(F)cc4F)c3)cc(O[C@@H]3CCOC3)c2n1 .
Completion: 1450
